# study_target: PAFAH2_C72 (Homo sapiens)
# Construct: endogenous in cells; host or cells: 22Rv1
# test_summary: IA-DTB cysteine engagement
# Assay type: binding
# measurement_parameters: 22Rv1 cells, 20 μM probe, 1 h, relative to DMSO
assay_metric: % engagement PAFAH2_C72 (%)
State just the number; it will be interpreted in %.

C=CC(=O)N1C[C@@H](c2ccc(Br)cc2)[C@H]1C(=O)Nc1cccc2cccnc12 [MY-1A] : 61.75

Data request: Consider the compound C=CC(=O)N1C[C@H](c2ccc(Br)cc2)[C@H]1C(=O)Nc1cccc2cccnc12 [MY-3B] and give its measured % engagement PAFAH2_C72.
Data returned: 81

Data request: Consider the compound C=CC(=O)N1C[C@H](c2ccc(Br)cc2)[C@H]1C(=O)Nc1cccc2cccnc12 [MY-3A] and give its measured % engagement PAFAH2_C72.
Data returned: 56.75

Data request: Consider the compound C=CC(=O)N1C[C@H](c2ccc(Br)cc2)[C@@H]1C(=O)Nc1cccc2cccnc12 [MY-1B] and give its measured % engagement PAFAH2_C72.
Data returned: 61

* * *

# study_target: ESRP1_C551 (Homo sapiens, UniProt Q6NXG1)
# Construct: endogenous in cells; host or cells: 22Rv1
# Sequence (Q6NXG1 whole entry): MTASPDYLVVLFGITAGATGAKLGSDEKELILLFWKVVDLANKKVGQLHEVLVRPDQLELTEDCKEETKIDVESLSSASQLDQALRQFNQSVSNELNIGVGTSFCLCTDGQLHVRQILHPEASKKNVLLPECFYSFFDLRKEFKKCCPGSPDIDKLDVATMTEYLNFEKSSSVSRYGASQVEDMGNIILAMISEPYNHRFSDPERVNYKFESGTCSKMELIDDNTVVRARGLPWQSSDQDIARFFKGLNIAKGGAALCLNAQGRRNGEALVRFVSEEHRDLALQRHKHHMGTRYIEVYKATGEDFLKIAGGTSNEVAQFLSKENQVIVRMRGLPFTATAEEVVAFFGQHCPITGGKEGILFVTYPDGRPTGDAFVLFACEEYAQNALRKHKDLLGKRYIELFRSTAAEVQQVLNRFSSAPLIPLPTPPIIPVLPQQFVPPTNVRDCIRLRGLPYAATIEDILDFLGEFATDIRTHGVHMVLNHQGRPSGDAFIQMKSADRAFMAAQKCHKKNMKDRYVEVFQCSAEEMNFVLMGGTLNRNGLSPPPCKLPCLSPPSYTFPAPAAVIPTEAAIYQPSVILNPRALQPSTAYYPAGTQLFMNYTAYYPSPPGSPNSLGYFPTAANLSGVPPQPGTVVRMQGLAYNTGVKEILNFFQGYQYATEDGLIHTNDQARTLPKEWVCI
# test_summary: IA-DTB cysteine engagement
# Format: binding
# measurement_parameters: 22Rv1 cells, 20 μM probe, 1 h, relative to DMSO
Below, each entry is listed with its recorded % engagement ESRP1_C551.
The reply should read as a number followed by its unit.

Examples from the recorded data:
C=CC(=O)N1C[C@H](c2ccc(Br)cc2)[C@H]1C(=O)Nc1cccc2cccnc12 [MY-3B] : 69%
C=CC(=O)N1C[C@@H](c2ccc(Br)cc2)[C@H]1C(=O)Nc1cccc2cccnc12 [MY-1A] : 51%
C=CC(=O)N1C[C@H](c2ccc(Br)cc2)[C@H]1C(=O)Nc1cccc2cccnc12 [MY-3A] : 6.5%

Data request: Consider the molecule C=CC(=O)N1C[C@H](c2ccc(Br)cc2)[C@@H]1C(=O)Nc1cccc2cccnc12 [MY-1B] and give its measured % engagement ESRP1_C551.
Data returned: 73.5%

* * *

Below, each entry is listed with its recorded % engagement TBC1D13_C282.
# study_target: TBC1D13_C282 (Homo sapiens)
# Construct: endogenous in cells; host or cells: 22Rv1
# Sequence (Q9NVG8 whole entry): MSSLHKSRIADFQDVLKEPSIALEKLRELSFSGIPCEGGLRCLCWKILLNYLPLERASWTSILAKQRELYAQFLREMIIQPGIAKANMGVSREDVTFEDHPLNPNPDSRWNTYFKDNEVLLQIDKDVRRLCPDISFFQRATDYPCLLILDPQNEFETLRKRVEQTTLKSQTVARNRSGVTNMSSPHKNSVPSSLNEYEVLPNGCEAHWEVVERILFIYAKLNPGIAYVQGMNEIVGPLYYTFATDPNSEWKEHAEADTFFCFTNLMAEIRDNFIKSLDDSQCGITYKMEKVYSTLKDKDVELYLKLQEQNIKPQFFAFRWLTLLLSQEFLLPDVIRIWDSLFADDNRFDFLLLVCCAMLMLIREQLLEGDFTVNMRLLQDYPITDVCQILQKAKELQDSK
# test_summary: IA-DTB cysteine engagement
# Format: binding
# measurement_parameters: 22Rv1 cells, 20 μM probe, 1 h, relative to DMSO
State just the number; it will be interpreted in %.

Examples from the recorded data:
C=CC(=O)N1C[C@H](c2ccc(Br)cc2)[C@H]1C(=O)Nc1cccc2cccnc12 [MY-3A] : −16
C=CC(=O)N1C[C@H](c2ccc(Br)cc2)[C@@H]1C(=O)Nc1cccc2cccnc12 : 1
C=CC(=O)N1C[C@@H](c2ccc(Br)cc2)[C@H]1C(=O)Nc1cccc2cccnc12 : 75.75

Data request: Consider the compound C=CC(=O)N1C[C@H](c2ccc(Br)cc2)[C@H]1C(=O)Nc1cccc2cccnc12 [MY-3B] and give its measured % engagement TBC1D13_C282.
Data returned: 51.5

* * *

# study_target: PSME1_C22 (Homo sapiens)
# Construct: endogenous in cells; host or cells: 22Rv1
# Sequence (Q06323 whole entry): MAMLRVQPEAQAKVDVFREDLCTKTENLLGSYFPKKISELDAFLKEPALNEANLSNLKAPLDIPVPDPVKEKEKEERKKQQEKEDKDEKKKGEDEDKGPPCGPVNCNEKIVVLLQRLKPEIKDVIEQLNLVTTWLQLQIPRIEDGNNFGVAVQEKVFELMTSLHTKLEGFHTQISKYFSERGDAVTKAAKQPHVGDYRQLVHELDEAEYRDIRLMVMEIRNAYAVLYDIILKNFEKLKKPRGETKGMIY
# test_summary: IA-DTB cysteine engagement
# Assay type: binding
# measurement_parameters: 22Rv1 cells, 20 μM probe, 1 h, relative to DMSO
Below, each entry is listed with its recorded % engagement PSME1_C22.
State just the number; it will be interpreted in %.

C=CC(=O)N1C[C@H](c2ccc(Br)cc2)[C@@H]1C(=O)Nc1cccc2cccnc12 [MY-1B] : 67.75
C=CC(=O)N1C[C@@H](c2ccc(Br)cc2)[C@H]1C(=O)Nc1cccc2cccnc12 [MY-1A] : −2.25
C=CC(=O)N1C[C@H](c2ccc(Br)cc2)[C@H]1C(=O)Nc1cccc2cccnc12 [MY-3A] : −14.5

Now examine the next entry.
Data request: Consider the compound C=CC(=O)N1C[C@H](c2ccc(Br)cc2)[C@H]1C(=O)Nc1cccc2cccnc12 [MY-3B] and give its measured % engagement PSME1_C22.
Data returned: −31.75

Attribution: patent US20250034216A1
